- test.details: Solubility screening in trehalose matrices pH 2.65 to 7.03
- Assay type: physicochemical
- study.conditions: water; 2 mM HCl and 260 mM trehalose dihydrate, pH 2.65; read-out: Solubility [mg per ml]
Ends that are not written are not given here.
Catalogue of sequences with associated solubility
observable: solubility

[[record]]
biopolymer_sequence = "PAARMFKAFILEGDKLVPK [Bir02J]"
recorded_measurement = "≥ 19.3 mg/mL"

[[record]]
biopolymer_sequence = "AKYMVIQGEPGRVIRGK [Bir12B]"
recorded_measurement = "≥ 8.54 mg/mL"

[[record]]
biopolymer_sequence = "ETLLRAVESYLLAHSDAY [Bir09]"
recorded_measurement = "≥ 0.777 mg/mL"

[[record]]
biopolymer_sequence = "FNYETETTSVIPAARK [BIR1I]"
recorded_measurement = "≥ 16.8 mg/mL"

[[record]]
biopolymer_sequence = "PGTIKKISFPEGFPFKYV [Bir04]"
recorded_measurement = "≥ 17.8 mg/mL"

[[record]]
biopolymer_sequence = "KEMGETLLRAVESYLLAHS [Bir09B]"
recorded_measurement = "≥ 10.6 mg/mL"

[[record]]
biopolymer_sequence = "SNEIKIVATPEGGSILK [Bir07C]"
recorded_measurement = "≥ 10.1 mg/mL"

[[record]]
biopolymer_sequence = "AERERIFKRFDANGEGK [Bir16A]"
recorded_measurement = "≥ 21.6 mg/mL"


###

Catalogue of sequences with associated solubility
- test.details: Solubility screening in trehalose matrices pH 2.65 to 7.03
- Format: physicochemical
- study.conditions: aqueous buffer; 10 mM sodium citrate and 260 mM trehalose dihydrate, pH 5.02; read-out: Solubility [mg per ml]
Ends that are not written are not given here.
observable: solubility

[[record]]
biopolymer_sequence = "PAARMFKAFILEGDKLVPK [Bir02J]"
recorded_measurement = "≥ 281 µg/mL"

[[record]]
biopolymer_sequence = "AKYMVIQGEPGRVIRGK [Bir12B]"
recorded_measurement = "≥ 4880 µg/mL"

[[record]]
biopolymer_sequence = "AERERIFKRFDANGEGK [Bir16A]"
recorded_measurement = "≥ 20100 µg/mL"

[[record]]
biopolymer_sequence = "ETLLRAVESYLLAHSDAY [Bir09]"
recorded_measurement = "≥ 315 µg/mL"

[[record]]
biopolymer_sequence = "KEMGETLLRAVESYLLAHS [Bir09B]"
recorded_measurement = "≥ 11100 µg/mL"

[[record]]
biopolymer_sequence = "SNEIKIVATPEGGSILK [Bir07C]"
recorded_measurement = "≥ 760 µg/mL"

[[record]]
biopolymer_sequence = "PGTIKKISFPEGFPFKYV [Bir04]"
recorded_measurement = "≥ 18600 µg/mL"

[[record]]
biopolymer_sequence = "FNYETETTSVIPAARK [BIR1I]"
recorded_measurement = "≥ 1990 µg/mL"


###

- test.details: Solubility screening in trehalose matrices pH 2.65 to 7.03;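 also: test items are peptides, each checked for solubility in every trehalose matrix, the matrices made up in distilled deionised water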
- Format: physicochemical
- study.conditions: 10 mM potassium dihydrogen phosphate and 260 mM trehalose dihydrate, pH 6.03
Ends that are not written are not given here.
observable: Solubility after 24 Hours

[[record]]
biopolymer_sequence = "KEMGETLLRAVESYLLAHS [Bir09B]"
recorded_measurement = "Precipitated out,"

[[record]]
biopolymer_sequence = "FNYETETTSVIPAARK [BIR1I]"
recorded_measurement = "Completely dissolved"

[[record]]
biopolymer_sequence = "AERERIFKRFDANGEGK [Bir16A]"
recorded_measurement = "Completely dissolved"

[[record]]
biopolymer_sequence = "PGTIKKISFPEGFPFKYV [Bir04]"
recorded_measurement = "Completely dissolved"

[[record]]
biopolymer_sequence = "SNEIKIVATPEGGSILK [Bir07C]"
recorded_measurement = "Precipitated out,"

[[record]]
biopolymer_sequence = "AKYMVIQGEPGRVIRGK [Bir12B]"
recorded_measurement = "Completely dissolved"

[[record]]
biopolymer_sequence = "PAARMFKAFILEGDKLVPK [Bir02J]"
recorded_measurement = "Completely dissolved"

